Recorded values, source patent US9844546B2.

- Test system: HIF-α prolyl-hydroxylase (HIF-PH) of cell extract
- assay explanation: Modifying activity (HIF-PH) of cell extract on HIF substrate (Gal/HIF-1α549-582/VP16 or 19:WT), pVHL capture assay
- Type: biochemical, mammalian
- condition summary: In-vitro inhibitor
readout: Disruption of HIF-VHL interaction

Use these answered entries as a reference point.
{"columns": ["molecule", "Disruption of HIF-VHL interaction"],
 "data": [
  ["CC(C)[C@H](NC(=O)C(=O)O)C(=O)O [NK80]", "No"],
  ["C[C@@H](NC(=O)C(=O)O)C(=O)O [NK82, oxalyl D-alanine]", "No"],
  ["O=C(O)c1ccnc(C(=O)O)c1 [2, 4 pyridine dicarboxylic acid]", "Yes"],
  ["O=C(O)CNC(=O)C(=O)O [NK87, oxalylglycine]", "Yes"]
]}

Could you now consider this next molecule?
Entry C[C@H](NC(=O)C(=O)O)C(=O)O [NK81, oxalyl L-alanine] — recorded Disruption of HIF-VHL interaction = Yes

----------
- Test system: HIF hydroxylase (HPH activity)
- assay explanation: HIF hydroxylase (HPH) inhibition, statements of the description
- Format: biochemical

{"columns": ["smiles", "inhibition of HIF hydroxylase / HPH"],
 "data": [
  ["C[C@H](NC(=O)C(=O)O)C(=O)O", "act as inhibitors"],
  ["O=C(O)CNC(=O)C(=O)O", "act as inhibitors"]
]}
